# Test system: M14 melanoma
# method.description: NCI tumour cell line growth inhibition, 48 h

- compound: "c1ccc2c(NCCCCCCCCNc3cccc4ccccc34)cccc2c1"
  TGI: "39.6 µM"
- compound: "COc1ccc(/C(Cl)=C(\\C=O)c2cc(OC)c(OC)c(OC)c2)cc1OC"
  TGI: "> 100 µM"
- compound: "N#CC(c1ccc(Cl)cc1)c1cccc(Cl)n1 (centres undefined)"
  TGI: "> 100 µM"
- compound: "C#CCOC(=O)C(N)CS (centres undefined)"
  TGI: "> 100 µM"
- compound: "OCC1OC(O)C(N=Cc2ccc3c(c2)OCO3)C(O)C1O (centres undefined)"
  TGI: "> 100 µM"
- compound: "CC1=CC[C@@]2(C)[C@@H]([C@@H]1C)[C@H]1CC[C@@H]3[C@@]4(C)CC[C@H](O)C(C)(C)[C@@H]4CC[C@@]3(C)[C@]1(C)C[C@@H]2O"
  TGI: "32.3 µM"
- compound: "O[C@H]1[C@H]2[C@H](O)CCCN2C[C@H]1O"
  TGI: "> 100 µM"
- compound: "OC1OC(c2ccc[nH]2)C(F)(F)C(F)(F)C1(F)F (centres undefined)"
  TGI: "> 100 µM"
- compound: "O=C1NC(=O)[C@H]2C3C=CC([C@@H]12)[C@@H]1C(=O)NC(=O)[C@H]31"
  TGI: "> 100 µM"
- compound: "CC1=C([Se]CC(OC(=O)[C@@H](CSSC(C)(C)C)NC(=O)C(C)(C)C)C(=O)NCCCCCC(=O)OCc2ccccc2)C(=O)c2ccccc2C1=O (some centres undefined)"
  TGI: "4.04 µM"
- compound: "O=c1c2c([nH]c3nccn13)CCCC2"
  TGI: "> 10 µM"
- compound: "O=c1[nH]c2nccn2c(Cl)c1Br"
  TGI: "34.5 µM"
- compound: "O=C(Nc1ccc(N=Nc2ccccc2)cc1)Sc1ccccc1C(=O)O"
  TGI: "> 100 µM"
- compound: "C/C=C/CP(=O)(c1ccccc1)c1ccccc1"
  TGI: "> 100 µM"
